Values compiled from paper PMC5361079.

# system_name: Cav1.2 (Homo sapiens)
# Construct: expressed in transfected cells
# Sequence (Q13936 whole entry): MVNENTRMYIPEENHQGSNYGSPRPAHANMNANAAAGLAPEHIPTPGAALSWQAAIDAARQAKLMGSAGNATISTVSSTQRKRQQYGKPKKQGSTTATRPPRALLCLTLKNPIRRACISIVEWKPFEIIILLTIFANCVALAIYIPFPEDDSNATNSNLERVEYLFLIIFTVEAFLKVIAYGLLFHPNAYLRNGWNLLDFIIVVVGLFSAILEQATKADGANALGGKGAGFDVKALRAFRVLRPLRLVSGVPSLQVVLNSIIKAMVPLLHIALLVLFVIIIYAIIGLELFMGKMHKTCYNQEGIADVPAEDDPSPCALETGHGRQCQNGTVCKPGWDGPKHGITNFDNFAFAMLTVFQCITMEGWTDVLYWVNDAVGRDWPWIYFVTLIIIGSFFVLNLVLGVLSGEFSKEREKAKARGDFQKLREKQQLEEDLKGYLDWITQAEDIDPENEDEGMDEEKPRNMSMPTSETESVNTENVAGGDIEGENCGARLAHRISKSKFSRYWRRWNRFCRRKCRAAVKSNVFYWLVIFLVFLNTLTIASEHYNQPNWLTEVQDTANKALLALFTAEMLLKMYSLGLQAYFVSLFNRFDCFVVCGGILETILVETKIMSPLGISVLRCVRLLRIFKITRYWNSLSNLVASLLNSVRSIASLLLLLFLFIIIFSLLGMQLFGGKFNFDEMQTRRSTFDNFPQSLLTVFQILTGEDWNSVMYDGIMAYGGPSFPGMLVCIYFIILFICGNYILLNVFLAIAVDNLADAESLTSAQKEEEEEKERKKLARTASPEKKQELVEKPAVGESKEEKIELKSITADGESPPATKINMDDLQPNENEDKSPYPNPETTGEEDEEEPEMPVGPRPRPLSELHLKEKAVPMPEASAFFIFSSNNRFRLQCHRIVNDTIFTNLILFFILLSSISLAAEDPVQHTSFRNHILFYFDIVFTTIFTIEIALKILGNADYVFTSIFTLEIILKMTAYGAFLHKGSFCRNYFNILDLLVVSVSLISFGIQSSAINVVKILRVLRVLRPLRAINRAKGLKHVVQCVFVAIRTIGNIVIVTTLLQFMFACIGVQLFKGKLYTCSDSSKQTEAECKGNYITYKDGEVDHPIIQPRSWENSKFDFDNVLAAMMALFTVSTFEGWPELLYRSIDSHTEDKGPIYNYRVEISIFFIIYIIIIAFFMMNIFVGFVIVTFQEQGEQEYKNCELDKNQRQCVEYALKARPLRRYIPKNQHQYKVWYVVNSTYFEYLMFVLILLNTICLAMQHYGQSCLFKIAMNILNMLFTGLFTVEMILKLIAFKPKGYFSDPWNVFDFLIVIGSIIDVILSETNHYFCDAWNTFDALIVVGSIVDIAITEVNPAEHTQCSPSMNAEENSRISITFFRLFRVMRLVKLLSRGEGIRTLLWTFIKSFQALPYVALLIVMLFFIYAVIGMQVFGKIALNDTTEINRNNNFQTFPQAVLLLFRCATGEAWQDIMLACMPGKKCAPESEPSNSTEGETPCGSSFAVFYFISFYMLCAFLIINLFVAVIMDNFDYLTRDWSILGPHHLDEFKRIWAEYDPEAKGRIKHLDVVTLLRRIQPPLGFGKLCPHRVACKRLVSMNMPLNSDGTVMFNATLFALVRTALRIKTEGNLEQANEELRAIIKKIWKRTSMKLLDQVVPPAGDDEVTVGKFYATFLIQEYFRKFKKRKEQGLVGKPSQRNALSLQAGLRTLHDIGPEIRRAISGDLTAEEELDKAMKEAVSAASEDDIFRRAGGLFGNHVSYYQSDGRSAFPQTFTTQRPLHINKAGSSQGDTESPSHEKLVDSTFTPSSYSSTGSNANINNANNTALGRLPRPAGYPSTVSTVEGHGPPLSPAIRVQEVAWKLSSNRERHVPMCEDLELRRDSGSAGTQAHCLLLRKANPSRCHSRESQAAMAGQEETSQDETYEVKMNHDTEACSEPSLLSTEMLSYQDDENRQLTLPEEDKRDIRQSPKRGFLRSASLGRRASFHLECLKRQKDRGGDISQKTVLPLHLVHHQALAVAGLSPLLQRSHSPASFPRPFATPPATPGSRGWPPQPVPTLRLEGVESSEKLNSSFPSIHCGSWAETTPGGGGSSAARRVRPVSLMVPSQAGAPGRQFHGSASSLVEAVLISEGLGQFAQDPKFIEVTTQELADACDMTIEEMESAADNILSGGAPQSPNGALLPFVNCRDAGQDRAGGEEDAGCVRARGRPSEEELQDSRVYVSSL
# Sequence (Q08289 whole entry partner): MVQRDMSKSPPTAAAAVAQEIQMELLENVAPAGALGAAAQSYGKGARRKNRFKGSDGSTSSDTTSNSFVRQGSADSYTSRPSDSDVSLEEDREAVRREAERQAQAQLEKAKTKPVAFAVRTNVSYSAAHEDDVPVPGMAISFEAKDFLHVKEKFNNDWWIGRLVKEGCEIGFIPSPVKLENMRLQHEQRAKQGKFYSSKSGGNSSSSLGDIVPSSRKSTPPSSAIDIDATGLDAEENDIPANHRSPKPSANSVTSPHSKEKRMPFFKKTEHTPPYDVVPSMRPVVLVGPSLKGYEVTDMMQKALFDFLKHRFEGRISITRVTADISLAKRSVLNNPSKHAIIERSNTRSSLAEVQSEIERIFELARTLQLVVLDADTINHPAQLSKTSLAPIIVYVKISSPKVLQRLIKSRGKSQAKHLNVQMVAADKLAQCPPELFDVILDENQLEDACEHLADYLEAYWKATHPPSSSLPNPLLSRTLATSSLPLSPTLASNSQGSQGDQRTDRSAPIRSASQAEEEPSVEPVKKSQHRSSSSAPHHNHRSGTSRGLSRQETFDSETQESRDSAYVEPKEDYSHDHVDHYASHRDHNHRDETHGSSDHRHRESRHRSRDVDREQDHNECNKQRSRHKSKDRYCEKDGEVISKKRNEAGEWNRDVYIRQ
# Sequence (P54289 25-946 partner limits assumed): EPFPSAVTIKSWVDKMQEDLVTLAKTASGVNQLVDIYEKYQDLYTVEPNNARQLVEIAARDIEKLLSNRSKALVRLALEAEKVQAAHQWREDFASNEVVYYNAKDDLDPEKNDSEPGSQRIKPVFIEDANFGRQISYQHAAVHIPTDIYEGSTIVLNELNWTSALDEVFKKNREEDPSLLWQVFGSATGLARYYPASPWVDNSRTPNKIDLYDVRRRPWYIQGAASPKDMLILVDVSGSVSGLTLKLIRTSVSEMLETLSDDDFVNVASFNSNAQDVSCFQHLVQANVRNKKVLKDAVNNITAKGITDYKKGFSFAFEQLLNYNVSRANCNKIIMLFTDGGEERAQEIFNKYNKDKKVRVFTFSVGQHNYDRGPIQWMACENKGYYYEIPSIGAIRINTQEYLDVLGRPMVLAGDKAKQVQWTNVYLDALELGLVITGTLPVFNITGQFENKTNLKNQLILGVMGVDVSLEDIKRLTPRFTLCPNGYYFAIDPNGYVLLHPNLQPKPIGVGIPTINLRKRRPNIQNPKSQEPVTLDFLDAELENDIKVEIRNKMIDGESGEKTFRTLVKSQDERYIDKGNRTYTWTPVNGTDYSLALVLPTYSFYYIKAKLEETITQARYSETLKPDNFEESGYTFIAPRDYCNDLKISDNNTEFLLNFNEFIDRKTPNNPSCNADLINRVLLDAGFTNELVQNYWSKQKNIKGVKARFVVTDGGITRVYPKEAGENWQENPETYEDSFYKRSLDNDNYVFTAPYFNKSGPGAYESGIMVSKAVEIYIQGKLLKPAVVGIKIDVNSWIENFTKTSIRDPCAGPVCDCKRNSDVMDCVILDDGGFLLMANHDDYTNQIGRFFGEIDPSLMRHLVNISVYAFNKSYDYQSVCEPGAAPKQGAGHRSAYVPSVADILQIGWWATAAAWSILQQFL
# Sequence (P54289 947-1103 partner limits assumed): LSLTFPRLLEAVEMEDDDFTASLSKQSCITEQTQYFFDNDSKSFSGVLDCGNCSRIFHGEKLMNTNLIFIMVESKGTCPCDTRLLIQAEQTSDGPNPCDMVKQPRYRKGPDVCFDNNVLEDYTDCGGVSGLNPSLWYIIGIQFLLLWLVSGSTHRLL
# assay_comment: Ca2+ influx in Cav1.2/HEK-293 cells (FDSS)
# Assay type: cell-based
# measurement_setup: Cav1.2/HEK-293, compound alone; read-out: IC50, Ca2+ influx inhibition
Assign IC50 to each entry below.

For C#C[C@]1(C)[C@@H](O)[C@@H](COP(=O)(N[C@@H](C)C(=O)OC(C)C)Oc2ccccc2)O[C@H]1n1ccc(=O)[nH]c1=O (some centres unmarked) [MNI-1] on Cav1.2 (Homo sapiens), measured IC50 was > 150 µM

For C#C[C@]1(C)[C@@H](O)[C@@H](COP(=O)(N[C@H](C)C(=O)OC(C)C)Oc2ccccc2)O[C@H]1n1ccc(=O)[nH]c1=O (some centres unmarked) [MNI-4] on Cav1.2 (Homo sapiens), measured IC50 was ~36 µM

---

# Tested on: hiPSC-CMs
# assay_comment: Intracellular prodrug, cleavage intermediate metabolite and NTP metabolite concentrations in hiPSC-CMs
# Type: in vitro ADME, human
# measurement_setup: hiPSC-CMs, 10 μM prodrug alone, 30 Min; BLOQ = below 17 pmol/million cells
measurement_type: Intracellular Concentration, Cleavage Intermediate Metabolite

Known results for compounds:
CC(C)OC(=O)C(C)NP(=O)(OCC1OC(n2ccc(=O)[nH]c2=O)C(C)(F)C1O)Oc1ccccc1 (centres unmarked) [MNI-5]: B LOQ
CC(C)OC(=O)[C@@H](C)NP(=O)(OC[C@H]1O[C@@H](n2ccc(=O)[nH]c2=O)[C@](C)(F)[C@@H]1O)Oc1ccccc1 (some centres unmarked): BLOQ
CC(C)OC(=O)[C@@H](C)NP(=O)(OC[C@H]1O[C@@H](n2ccc(=O)[nH]c2=O)[C@](C)(Cl)[C@@H]1O)Oc1ccccc1 (some centres unmarked): BLOQ
C#C[C@]1(C)[C@@H](O)[C@@H](COP(=O)(N[C@H](C)C(=O)OC(C)C)Oc2ccccc2)O[C@H]1n1ccc(=O)[nH]c1=O (some centres unmarked): BLOQ

Turning now to a further record.
// field: Intracellular Concentration, Cleavage Intermediate Metabolite; key: CC(C)OC(=O)C(C)NP(=O)(OCC1OC(n2ccc(=O)[nH]c2=O)C(C)(F)C1O)Oc1ccccc1 (centres unmarked) [MNI-6] ; value = B LOQ

---

# Test system: hiPSC-CM syncytia
# assay_comment: Spontaneous FP rate and IMP amplitude/beating rate in hiPSC-CM syncytia (RTCA CardioECR / RTCA Cardio)
# Assay type: cell-based, human
# measurement_setup: prodrug co-administered with 0.3 μM amiodarone, steady state (4 h), spontaneously beating hiPSC-CM syncytia
measurement_type: Effect on IMP amplitude

CC(C)OC(=O)[C@@H](C)NP(=O)(OC[C@H]1O[C@@H](n2ccc(=O)[nH]c2=O)[C@](C)(Cl)[C@@H]1O)Oc1ccccc1 (stereo partly drawn) [MK-3682]: lack of effects
C#C[C@]1(C)[C@@H](O)[C@@H](COP(=O)(N[C@H](C)C(=O)OC(C)C)Oc2ccccc2)O[C@H]1n1ccc(=O)[nH]c1=O (stereo partly drawn) [MNI-4]: lack of effects
CC(C)OC(=O)[C@@H](C)NP(=O)(OC[C@H]1O[C@@H](n2ccc(=O)[nH]c2=O)[C@](C)(F)[C@@H]1O)Oc1ccccc1 (stereo partly drawn) [MNI-2]: lack of effects

---

# Tested on: hiPSC-CMs
# assay_comment: Intracellular prodrug, cleavage intermediate metabolite and NTP metabolite concentrations in hiPSC-CMs
# Assay type: in vitro ADME, human
# measurement_setup: hiPSC-CMs, 10 μM prodrug + 0.3 μM amiodarone, 4 Hours; BLOQ = below 17 pmol/million cells
measurement_type: Intracellular Concentration, NTP Metabolite

CC(C)OC(=O)[C@@H](C)NP(=O)(OC[C@H]1O[C@@H](n2ccc(=O)[nH]c2=O)[C@](C)(F)[C@@H]1O)Oc1ccccc1 (stereo partly shown): BLOQ
CC(C)OC(=O)[C@@H](C)NP(=O)(OC[C@H]1O[C@@H](n2ccc(=O)[nH]c2=O)[C@](C)(Cl)[C@@H]1O)Oc1ccccc1 (stereo partly shown): BLOQ
C#C[C@]1(C)[C@@H](O)[C@@H](COP(=O)(N[C@H](C)C(=O)OC(C)C)Oc2ccccc2)O[C@H]1n1ccc(=O)[nH]c1=O (stereo partly shown): BLOQ

---

# Tested on: hiPSC-CMs
# assay_comment: Intracellular prodrug, cleavage intermediate metabolite and NTP metabolite concentrations in hiPSC-CMs
# Format: in vitro ADME, human
# measurement_setup: hiPSC-CMs, 10 μM prodrug alone, 30 Min; BLOQ = below 17 pmol/million cells
measurement_type: Intracellular Concentration, NTP Metabolite

CC(C)OC(=O)[C@@H](C)NP(=O)(OC[C@H]1O[C@@H](n2ccc(=O)[nH]c2=O)[C@](C)(Cl)[C@@H]1O)Oc1ccccc1 (some centres unmarked): BLOQ
CC(C)OC(=O)[C@@H](C)NP(=O)(OC[C@H]1O[C@@H](n2ccc(=O)[nH]c2=O)[C@](C)(F)[C@@H]1O)Oc1ccccc1 (some centres unmarked): BLOQ
CC(C)OC(=O)[C@H](C)NP(=O)(OC[C@H]1O[C@@H](n2ccc(=O)[nH]c2=O)[C@](C)(F)[C@@H]1O)Oc1ccccc1 (some centres unmarked) [sofosbuvir, reference compound]: BLOQ*
CC(C)OC(=O)C(C)NP(=O)(OCC1OC(n2ccc(=O)[nH]c2=O)C(C)(F)C1O)Oc1ccccc1 (centres unmarked) [MNI-6]: B LOQ

For C#C[C@]1(C)[C@@H](O)[C@@H](COP(=O)(N[C@H](C)C(=O)OC(C)C)Oc2ccccc2)O[C@H]1n1ccc(=O)[nH]c1=O (some centres unmarked) on hiPSC-CMs, measured Intracellular Concentration, NTP Metabolite was BLOQ

For CC(C)OC(=O)C(C)NP(=O)(OCC1OC(n2ccc(=O)[nH]c2=O)C(C)(F)C1O)Oc1ccccc1 (centres unmarked) [MNI-5] on hiPSC-CMs, measured Intracellular Concentration, NTP Metabolite was B LOQ

For CC(C)OC(=O)[C@H](C)NP(=O)(OC[C@H]1O[C@@H](n2ccc(=O)[nH]c2=O)[C@](C)(Cl)[C@@H]1O)Oc1ccccc1 (some centres unmarked) on hiPSC-CMs, measured Intracellular Concentration, NTP Metabolite was BLOQ

For C#C[C@]1(C)[C@@H](O)[C@@H](COP(=O)(N[C@@H](C)C(=O)OC(C)C)Oc2ccccc2)O[C@H]1n1ccc(=O)[nH]c1=O (some centres unmarked) on hiPSC-CMs, measured Intracellular Concentration, NTP Metabolite was BLOQ

---

# Tested on: hiPSC-CMs
# assay_comment: Intracellular prodrug, cleavage intermediate metabolite and NTP metabolite concentrations in hiPSC-CMs
# Format: in vitro ADME, human
# measurement_setup: hiPSC-CMs, 10 μM prodrug alone, 4 Hours; BLOQ = below 17 pmol/million cells
measurement_type: Intracellular Concentration, NTP Metabolite

Known results for compounds:
CC(C)OC(=O)C(C)NP(=O)(OCC1OC(n2ccc(=O)[nH]c2=O)C(C)(F)C1O)Oc1ccccc1 (stereo not drawn) [MNI-6]: B LOQ
CC(C)OC(=O)C(C)NP(=O)(OCC1OC(n2ccc(=O)[nH]c2=O)C(C)(F)C1O)Oc1ccccc1 (stereo not drawn) [MNI-5]: B LOQ
CC(C)OC(=O)[C@@H](C)NP(=O)(OC[C@H]1O[C@@H](n2ccc(=O)[nH]c2=O)[C@](C)(Cl)[C@@H]1O)Oc1ccccc1 (stereo partly drawn): BLOQ
C#C[C@]1(C)[C@@H](O)[C@@H](COP(=O)(N[C@H](C)C(=O)OC(C)C)Oc2ccccc2)O[C@H]1n1ccc(=O)[nH]c1=O (stereo partly drawn): BLOQ

Turning now to a further record.
// field: Intracellular Concentration, NTP Metabolite; key: CC(C)OC(=O)[C@@H](C)NP(=O)(OC[C@H]1O[C@@H](n2ccc(=O)[nH]c2=O)[C@](C)(F)[C@@H]1O)Oc1ccccc1 (stereo partly drawn) ; value = BLOQ

---

# System: hiPSC-CMs
# assay_comment: Intracellular prodrug, cleavage intermediate metabolite and NTP metabolite concentrations in hiPSC-CMs
# Format: in vitro ADME, human
# measurement_setup: hiPSC-CMs, 10 μM prodrug alone, 30 Min
measurement_type: Intracellular Concentration, Prodrug (pmol/million cells)
Your answer should be a plain number; it is taken to be in pmol/million cells.

// field: Intracellular Concentration, Prodrug; key: C#C[C@]1(C)[C@@H](O)[C@@H](COP(=O)(N[C@@H](C)C(=O)OC(C)C)Oc2ccccc2)O[C@H]1n1ccc(=O)[nH]c1=O (some centres unmarked) ; value = 75.4

// field: Intracellular Concentration, Prodrug; key: CC(C)OC(=O)C(C)NP(=O)(OCC1OC(n2ccc(=O)[nH]c2=O)C(C)(F)C1O)Oc1ccccc1 (centres unmarked) [MNI-5] ; value = 53.6

// field: Intracellular Concentration, Prodrug; key: CC(C)OC(=O)C(C)NP(=O)(OCC1OC(n2ccc(=O)[nH]c2=O)C(C)(F)C1O)Oc1ccccc1 (centres unmarked) [MNI-6] ; value = 46.6

// field: Intracellular Concentration, Prodrug; key: CC(C)OC(=O)[C@@H](C)NP(=O)(OC[C@H]1O[C@@H](n2ccc(=O)[nH]c2=O)[C@](C)(F)[C@@H]1O)Oc1ccccc1 (some centres unmarked) ; value = 53.5

// field: Intracellular Concentration, Prodrug; key: CC(C)OC(=O)[C@H](C)NP(=O)(OC[C@H]1O[C@@H](n2ccc(=O)[nH]c2=O)[C@](C)(Cl)[C@@H]1O)Oc1ccccc1 (some centres unmarked) ; value = 97.3

// field: Intracellular Concentration, Prodrug; key: C#C[C@]1(C)[C@@H](O)[C@@H](COP(=O)(N[C@H](C)C(=O)OC(C)C)Oc2ccccc2)O[C@H]1n1ccc(=O)[nH]c1=O (some centres unmarked) ; value = 75.4

// field: Intracellular Concentration, Prodrug; key: CC(C)OC(=O)[C@H](C)NP(=O)(OC[C@H]1O[C@@H](n2ccc(=O)[nH]c2=O)[C@](C)(F)[C@@H]1O)Oc1ccccc1 (some centres unmarked) [sofosbuvir, reference compound] ; value = 46.7

// field: Intracellular Concentration, Prodrug; key: CC(C)OC(=O)[C@@H](C)NP(=O)(OC[C@H]1O[C@@H](n2ccc(=O)[nH]c2=O)[C@](C)(Cl)[C@@H]1O)Oc1ccccc1 (some centres unmarked) ; value = 89.8
